# target-of-assay: T1, human TMEM106B (human, UniProt Q9NUM4 2-274)
# T1 construct: Full-length, on transiently transfected HEK293 cells, or natively expressed on HeLa, U251 and A549 cells; also called huTMEM106B; huTMEM
# assay-protocol: FACS HEK+huTMEM, 1.0 ug/ml
experimental-readout: MFI
Answer field: number only, no words.

These solved cases illustrate the format of a correct answer.
binder: anti-TMEM106B antibody TM-12 (antibody, V domains shown) VH: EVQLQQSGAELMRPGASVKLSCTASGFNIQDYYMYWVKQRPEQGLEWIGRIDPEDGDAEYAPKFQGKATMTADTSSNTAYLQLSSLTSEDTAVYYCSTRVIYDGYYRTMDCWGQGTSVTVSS VL: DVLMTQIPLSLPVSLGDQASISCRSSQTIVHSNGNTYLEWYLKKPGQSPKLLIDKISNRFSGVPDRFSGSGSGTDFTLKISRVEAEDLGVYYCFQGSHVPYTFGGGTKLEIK
test-value: 77800

binder: anti-TMEM106B antibody TM-11 (antibody, V domains shown) VH: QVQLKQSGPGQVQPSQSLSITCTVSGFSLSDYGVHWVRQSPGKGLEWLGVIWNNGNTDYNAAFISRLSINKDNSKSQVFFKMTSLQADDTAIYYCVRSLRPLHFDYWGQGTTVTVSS VL: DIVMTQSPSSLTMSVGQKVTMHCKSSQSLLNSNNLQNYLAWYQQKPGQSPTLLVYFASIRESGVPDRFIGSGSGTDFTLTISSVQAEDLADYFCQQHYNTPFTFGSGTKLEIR
test-value: 54600

binder: anti-TMEM106B antibody TM-33 (antibody, V domains shown, mouse IgG from hybridoma) VH: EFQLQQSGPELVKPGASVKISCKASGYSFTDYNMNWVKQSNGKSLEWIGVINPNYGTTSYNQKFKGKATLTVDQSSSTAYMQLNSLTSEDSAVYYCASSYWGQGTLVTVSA VL: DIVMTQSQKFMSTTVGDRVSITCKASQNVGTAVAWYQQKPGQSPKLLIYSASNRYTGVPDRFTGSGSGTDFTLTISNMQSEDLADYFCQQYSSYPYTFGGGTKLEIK
test-value: 5630

binder: anti-TMEM106B antibody TM-18 (antibody, V domains shown) VH: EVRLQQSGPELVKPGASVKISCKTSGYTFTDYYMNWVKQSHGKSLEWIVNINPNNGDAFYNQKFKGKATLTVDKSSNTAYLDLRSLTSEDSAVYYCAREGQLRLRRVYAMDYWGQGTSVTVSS VL: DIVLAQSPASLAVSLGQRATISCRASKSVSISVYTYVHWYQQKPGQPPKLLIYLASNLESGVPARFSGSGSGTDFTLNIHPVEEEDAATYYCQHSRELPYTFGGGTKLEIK
test-value: 67300

Field: next binder
Briefly, MFI measured for anti-TMEM106B antibody TM-25 (antibody, V domains shown) VH: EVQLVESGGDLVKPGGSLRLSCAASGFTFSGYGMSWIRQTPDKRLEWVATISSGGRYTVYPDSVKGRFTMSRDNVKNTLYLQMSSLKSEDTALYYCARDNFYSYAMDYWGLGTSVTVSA VL: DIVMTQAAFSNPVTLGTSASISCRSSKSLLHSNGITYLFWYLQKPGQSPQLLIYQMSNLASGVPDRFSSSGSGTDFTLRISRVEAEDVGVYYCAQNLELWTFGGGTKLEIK : 64700
